# Tested on: HL-60
# method: Antioxidant activity in PMA-stimulated Homo sapiens (human) HL60 cells assessed as inhibition of intracellular ROS generation incubated for 30 min prior to PMA stimulation measured after 30 min by DCFH-DA assay
# Assay type: functional, cell-based
experimentalEndpoint: IC50 (µg/mL)
Give bare numbers, in µg/mL.

O=C(N/N=C/c1ccc(F)cc1)c1ccc(F)cc1; 20
CC(=O)N1N=C(c2ccc(F)cc2)OC1c1ccco1 (stereo not drawn); 5.2
COc1ccc(/C=N/NC(=O)c2ccc(F)cc2)cc1O; 0.9

For each entry beneath this line, provide reported IC50.
1. COc1ccc(C2OC(c3ccc(F)cc3)=NN2C(C)=O)cc1O (stereo not drawn)
2. O=C(N/N=C/c1ccco1)c1ccc(F)cc1
3. COc1ccc(/C=N/NC(=O)c2ccc(F)cc2)cc1
4. Cc1c(C)c2c(c(C)c1O)CCC(C)(C(=O)O)O2 (stereo not drawn)
5. CN(C)c1ccc(/C=N/NC(=O)c2ccc(F)cc2)cc1

Ans:
[0.9, 0.7, 2.5, 0.3, 23]

These data points were gathered from ChEMBL document CHEMBL3046330.
